Test: xn = mol fraction of the nth substance listed, in the solute-free solvent
Details: 283.15 K; x2 = 0.2
Please use true (1) whenever solubility (g/100 g solution) is not below 6, and false (0) whenever it is.

# compound, classification
rows = [
    ("CCCCOc1ccc(C(=O)CCN2CCCCC2)cc1.Cl + CCO + O", "true (1)"),
    ("O=C1CCc2ccc(OCCCCN3CCN(c4cccc(Cl)c4Cl)CC3)cc2N1 + CCC(C)=O + CC(C)=O", "false (0)"),
    ("COC1=CC(=O)CC(C)C12Oc1c(Cl)c(OC)cc(OC)c1C2=O (stereo unspecified) + CC(=O)CC(C)C + CC(C)O", "false (0)"),
    ("CCCCOc1ccc(C(=O)CCN2CCCCC2)cc1.Cl + CCO + CCOC(C)=O", "true (1)"),
    ("O=C(O)C1CSCN1 (stereo unspecified) + O + CC#N", "false (0)"),
    ("O=C1CCc2ccc(OCCCCN3CCN(c4cccc(Cl)c4Cl)CC3)cc2N1 + CCC(C)=O + CCCO", "false (0)"),
    ("O=C1CCc2ccc(OCCCCN3CCN(c4cccc(Cl)c4Cl)CC3)cc2N1 + CCC(C)=O + CCOC(C)=O", "false (0)"),
    ("CCCCOc1ccc(C(=O)CCN2CCCCC2)cc1.Cl + CO + C1CCOC1", "true (1)"),
    ("COC1=CC(=O)CC(C)C12Oc1c(Cl)c(OC)cc(OC)c1C2=O (stereo unspecified) + CCC(C)=O + CC(C)O", "false (0)"),
    ("COC1=CC(=O)CC(C)C12Oc1c(Cl)c(OC)cc(OC)c1C2=O (stereo unspecified) + CC(C)=O + CC(C)O", "false (0)"),
    ("CCCCOc1ccc(C(=O)CCN2CCCCC2)cc1.Cl + CCO + CCCCCC", "false (0)"),
]

* * *

Experiment: xn = mol fraction of the nth substance listed, in the solute-free solvent
Conditions: 303.15 K; x2 = 0.2
readout kind: solubility (g/100 g solution)

# compound, val
measured = [
    ("O=C1CCc2ccc(OCCCCN3CCN(c4cccc(Cl)c4Cl)CC3)cc2N1 + CCC(C)=O + CCOC(C)=O", 1.74),
    ("O=C(O)c1ccc(C(=O)O)o1 + C1CCOC1 + O", 4.22),
    ("O=C(O)C1CSCN1 (stereo not given) + O + CC#N", 0.0416),
    ("COC1=CC(=O)CC(C)C12Oc1c(Cl)c(OC)cc(OC)c1C2=O (stereo not given) + CC(C)=O + CC(C)O", 0.668),
    ("CCCCOc1ccc(C(=O)CCN2CCCCC2)cc1.Cl + CCO + O", 50.6),
]

* * *

Assay: xn = mol fraction of the nth substance listed, in the solute-free solvent
Settings: 318.15 K; x2 = 0.1
solubility (g/100 g solution) below 2 gives F; solubility (g/100 g solution) at or above it gives T.

# compound, classification
rows = [
    ("COC1=CC(=O)CC(C)C12Oc1c(Cl)c(OC)cc(OC)c1C2=O (stereo not given) + CC(=O)CC(C)C + CC(C)O", "F"),
    ("O=C(O)c1ccc(C(=O)O)o1 + C1COCCO1 + O", "T"),
    ("COC1=CC(=O)CC(C)C12Oc1c(Cl)c(OC)cc(OC)c1C2=O (stereo not given) + CCC(C)=O + CC(C)O", "F"),
    ("CCCCOc1ccc(C(=O)CCN2CCCCC2)cc1.Cl + CCO + O", "T"),
    ("CCCCOc1ccc(C(=O)CCN2CCCCC2)cc1.Cl + CO + C1CCOC1", "T"),
    ("COC1=CC(=O)CC(C)C12Oc1c(Cl)c(OC)cc(OC)c1C2=O (stereo not given) + CC(C)=O + CC(C)O", "F"),
    ("O=C(O)c1ccc(C(=O)O)o1 + O + COCCOC", "F"),
    ("CCCCOc1ccc(C(=O)CCN2CCCCC2)cc1.Cl + CCO + CCOC(C)=O", "T"),
    ("O=C(O)c1ccc(C(=O)O)o1 + C1CCOC1 + O", "T"),
    ("CCCCOc1ccc(C(=O)CCN2CCCCC2)cc1.Cl + CCO + CCCCCC", "T"),
]

* * *

Assay: xn = mol fraction of the nth substance listed, in the solute-free solvent
Settings: 318.15 K; x2 = 0.6
Measured solubility (g/100 g solution), listed per entry for reference.
readout kind: solubility (g/100 g solution)

# compound, val
rows = [
    ("CCCCOc1ccc(C(=O)CCN2CCCCC2)cc1.Cl + CO + C1CCOC1", 49.9),
    ("CCCCOc1ccc(C(=O)CCN2CCCCC2)cc1.Cl + CCO + CCOC(C)=O", 38.4),
    ("O=C(O)c1ccc(C(=O)O)o1 + C1COCCO1 + O", 4.66),
    ("O=C(O)c1ccc(C(=O)O)o1 + C1CCOC1 + O", 8.16),
    ("COC1=CC(=O)CC(C)C12Oc1c(Cl)c(OC)cc(OC)c1C2=O (configuration not stated) + CC(=O)CC(C)C + CC(C)O", 1.5),
    ("CC(=O)OC(c1ccccc1)C(Cl)(Cl)Cl (configuration not stated) + CC(C)O + O", 10.9),
    ("COC1=CC(=O)CC(C)C12Oc1c(Cl)c(OC)cc(OC)c1C2=O (configuration not stated) + CCC(C)=O + CC(C)O", 2.92),
    ("CC(=O)OC(c1ccccc1)C(Cl)(Cl)Cl (configuration not stated) + CC(=O)O + O", 7.52),
    ("O=C1CCc2ccc(OCCCCN3CCN(c4cccc(Cl)c4Cl)CC3)cc2N1 + CCC(C)=O + CCCO", 7.89),
    ("CCCCOc1ccc(C(=O)CCN2CCCCC2)cc1.Cl + CCO + CCCCCC", 35.5),
    ("O=C1CCc2ccc(OCCCCN3CCN(c4cccc(Cl)c4Cl)CC3)cc2N1 + CCC(C)=O + CCOC(C)=O", 4.12),
    ("CC(=O)OC(c1ccccc1)C(Cl)(Cl)Cl (configuration not stated) + CCO + O", 7.34),
]

* * *

Assay: xn = mol fraction of the nth substance listed, in the solute-free solvent
Conditions: 303.15 K; x2 = 0.3
# maps each entry to its solubility (g/100 g solution)

# compound, solubility (g/100 g solution)
records = [
    ("COC1=CC(=O)CC(C)C12Oc1c(Cl)c(OC)cc(OC)c1C2=O (stereo unspecified) + CCC(C)=O + CC(C)O", 0.894),
    ("CCCCOc1ccc(C(=O)CCN2CCCCC2)cc1.Cl + CCO + CCOC(C)=O", 17.3),
    ("COC1=CC(=O)CC(C)C12Oc1c(Cl)c(OC)cc(OC)c1C2=O (stereo unspecified) + CC(=O)CC(C)C + CC(C)O", 0.67),
    ("O=C(O)c1ccc(C(=O)O)o1 + O + COCCOCCOC", 2.83),
    ("O=C(O)c1ccc(C(=O)O)o1 + O + COCCOC", 3.75),
    ("O=C1CCc2ccc(OCCCCN3CCN(c4cccc(Cl)c4Cl)CC3)cc2N1 + CCC(C)=O + CCCO", 3.15),
]

* * *

Test: xn = mol fraction of the nth substance listed, in the solute-free solvent
Details: 303.15 K; x2 = 0.7
readout kind: solubility (g/100 g solution)

# compound, readout kind, val
records = [
    ("COC1=CC(=O)CC(C)C12Oc1c(Cl)c(OC)cc(OC)c1C2=O (stereo not drawn) + CCC(C)=O + CC(C)O", "solubility (g/100 g solution)", 2.31),
    ("O=C1CCc2ccc(OCCCCN3CCN(c4cccc(Cl)c4Cl)CC3)cc2N1 + CCC(C)=O + CCOC(C)=O", "solubility (g/100 g solution)", 2.55),
    ("CCCCOc1ccc(C(=O)CCN2CCCCC2)cc1.Cl + CCO + CCCCCC", "solubility (g/100 g solution)", 32),
    ("CCCCOc1ccc(C(=O)CCN2CCCCC2)cc1.Cl + CCO + O", "solubility (g/100 g solution)", 47.6),
    ("CC(=O)OC(c1ccccc1)C(Cl)(Cl)Cl (stereo not drawn) + CCO + O", "solubility (g/100 g solution)", 4.64),
    ("CCCCOc1ccc(C(=O)CCN2CCCCC2)cc1.Cl + CCO + CCOC(C)=O", "solubility (g/100 g solution)", 33.5),
    ("O=C1CCc2ccc(OCCCCN3CCN(c4cccc(Cl)c4Cl)CC3)cc2N1 + CCC(C)=O + CC(C)=O", "solubility (g/100 g solution)", 2.91),
    ("CCCCOc1ccc(C(=O)CCN2CCCCC2)cc1.Cl + CO + C1CCOC1", "solubility (g/100 g solution)", 46.2),
    ("CC(=O)OC(c1ccccc1)C(Cl)(Cl)Cl (stereo not drawn) + CC(=O)O + O", "solubility (g/100 g solution)", 6.03),
    ("CC(=O)OC(c1ccccc1)C(Cl)(Cl)Cl (stereo not drawn) + CC(C)O + O", "solubility (g/100 g solution)", 5.52),
    ("O=C(O)c1ccc(C(=O)O)o1 + C1COCCO1 + O", "solubility (g/100 g solution)", 3.03),
    ("O=C(O)c1ccc(C(=O)O)o1 + C1CCOC1 + O", "solubility (g/100 g solution)", 6.76),
    ("COC1=CC(=O)CC(C)C12Oc1c(Cl)c(OC)cc(OC)c1C2=O (stereo not drawn) + CC(=O)CC(C)C + CC(C)O", "solubility (g/100 g solution)", 1.08),
    ("COC1=CC(=O)CC(C)C12Oc1c(Cl)c(OC)cc(OC)c1C2=O (stereo not drawn) + CC(C)=O + CC(C)O", "solubility (g/100 g solution)", 2.87),
    ("O=C(O)c1ccc(C(=O)O)o1 + O + COCCOCCOC", "solubility (g/100 g solution)", 6.17),
    ("O=C(O)C1CSCN1 (stereo not drawn) + O + CC#N", "solubility (g/100 g solution)", 0.901),
    ("O=C1CCc2ccc(OCCCCN3CCN(c4cccc(Cl)c4Cl)CC3)cc2N1 + CCC(C)=O + CCCO", "solubility (g/100 g solution)", 4.22),
    ("O=C(O)c1ccc(C(=O)O)o1 + O + COCCOC", "solubility (g/100 g solution)", 5.57),
]

Values were extracted from the CheMixHub drug solubility set.
